Target: UniProt:P06870
Sequence (P06870 whole entry): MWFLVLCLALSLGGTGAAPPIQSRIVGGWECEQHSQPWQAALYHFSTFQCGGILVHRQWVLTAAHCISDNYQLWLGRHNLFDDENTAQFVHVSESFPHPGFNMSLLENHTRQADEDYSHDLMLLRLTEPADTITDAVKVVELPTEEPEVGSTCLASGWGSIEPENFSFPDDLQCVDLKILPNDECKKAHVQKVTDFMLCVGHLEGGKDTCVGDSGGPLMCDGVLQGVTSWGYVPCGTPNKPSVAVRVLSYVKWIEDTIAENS
Experiment: Inhibitory Effect on the Enzymatic Activity of KLK: Table 4: The molecules were tested in order to evaluate their possible inhibitory effect on the enzymatic activity of KLK1. The % inhibitions were determined from the residual activity of the hydrolysis of the Boc-PFR-AMC fluorogenic substrate (100 μM) by KLK1 (1.6 nM) after 15 minutes of incubation at 37° C. with each molecule at 10 μM.
MEASURED_PARAMETER: IC50 (µM)

1. NCc1ccc(NC(=O)c2cc3ccccc3cc2O)cc1
2. Cc1ccc(C(=O)Nc2ccc(CN)cc2)c(O)c1
Input line: Form: Entry with minimum IC50 (choose one): 1 / 2 # respond with the chosen item's label
Output line: 1
(1: 5.9 µM, 2: 39.3 µM)
